meta.source: ChEMBL document CHEMBL1148516

Test system: Mus musculus
Assay: Calcemic activity in percutaneously dosed mouse relative to control
Assay type: functional
endpoint: Blood ionized calcium (mmol/L)
Write down the numeric answer in mmol/L and omit the unit.

Solved entries:
# molecule, target_system, u, Blood ionized calcium
records = [
    ("C=C1/C(=C\\C=C2/CCC[C@]3(C)C([C@H](C)OCC(=O)O)=CCC23)C[C@@H](O)C[C@@H]1O (some centres not stated)", "Mus musculus", "mmol/L", 1.38),
    ("C=C1/C(=C\\C=C2/CCC[C@]3(C)C([C@H](C)OCC(=O)NC(C)(C)C)=CCC23)C[C@@H](O)C[C@@H]1O (some centres not stated)", "Mus musculus", "mmol/L", 2.16),
    ("C=C1/C(=C\\C=C2/CCC[C@]3(C)[C@@H]([C@H](C)OCCC(C)(C)O)CC[C@@H]23)C[C@@H](O)C[C@@H]1O", "Mus musculus", "mmol/L", 2.6),
    ("C=C1/C(=C\\C=C2/CCC[C@]3(C)C([C@H](C)OCC(=O)NCC(F)(F)C(F)(F)F)=CCC23)C[C@@H](O)C[C@@H]1O (some centres not stated)", "Mus musculus", "mmol/L", 1.58),
    ("C=C1/C(=C\\C=C2/CCC[C@]3(C)C([C@H](C)O)=CCC23)C[C@@H](O)C[C@@H]1O (some centres not stated)", "Mus musculus", "mmol/L", 1.4),
    ("C=C1/C(=C\\C=C2/CCC[C@]3(C)C([C@H](C)OCC(=O)OC(C)(CC)CC)=CCC23)C[C@@H](O)C[C@@H]1O (some centres not stated)", "Mus musculus", "mmol/L", 1.57),
]

System Mus musculus. Read-out Blood ionized calcium. Item C=C1/C(=C\C=C2/CCC[C@]3(C)C([C@H](C)OCC(=O)NCC(C)(C)C)=CCC23)C[C@@H](O)C[C@@H]1O (some centres not stated) . Report value.
1.82

====

Tested on: Mus musculus
Assay: Calcemic activity in percutaneously dosed mouse relative to control
Assay type: functional
endpoint: Blood ionized calcium (mmol/L)
Write down the numeric answer in mmol/L and omit the unit.

# example entries with known answers
# compound, target_system, endpoint, u, assay_result
records = [
    ("C=C1/C(=C\\C=C2/CCC[C@]3(C)C([C@H](C)OCC(=O)OC(C)(C)C)=CCC23)C[C@@H](O)C[C@@H]1O (some centres undefined)", "Mus musculus", "Blood ionized calcium", "mmol/L", 1.65),
    ("C=C1/C(=C\\C=C2/CCC[C@]3(C)C([C@H](C)OCCC(C)(C)O)=CCC23)CC(O)CC1O (single isomer, unassigned)", "Mus musculus", "Blood ionized calcium", "mmol/L", 2.16),
    ("C=C1/C(=C\\C=C2/CCC[C@@]3(C)C2CC[C@@H]3[C@H](C)OCC(=O)OC(C)(C)C)C[C@@H](O)C[C@@H]1O (some centres undefined)", "Mus musculus", "Blood ionized calcium", "mmol/L", 1.49),
]

Identify measured Blood ionized calcium corresponding to C=C1/C(=C\C=C2/CCC[C@@]3(C)C2CC[C@@H]3[C@H](C)CCC(=O)OC(C)(C)C)C[C@@H](O)C[C@@H]1O (some centres undefined)
1.77

====

Activity listing for selected compounds.
Biological target: Vitamin D3 receptor (Gallus gallus) (UniProt O42392)
Sequence (O42392 whole entry): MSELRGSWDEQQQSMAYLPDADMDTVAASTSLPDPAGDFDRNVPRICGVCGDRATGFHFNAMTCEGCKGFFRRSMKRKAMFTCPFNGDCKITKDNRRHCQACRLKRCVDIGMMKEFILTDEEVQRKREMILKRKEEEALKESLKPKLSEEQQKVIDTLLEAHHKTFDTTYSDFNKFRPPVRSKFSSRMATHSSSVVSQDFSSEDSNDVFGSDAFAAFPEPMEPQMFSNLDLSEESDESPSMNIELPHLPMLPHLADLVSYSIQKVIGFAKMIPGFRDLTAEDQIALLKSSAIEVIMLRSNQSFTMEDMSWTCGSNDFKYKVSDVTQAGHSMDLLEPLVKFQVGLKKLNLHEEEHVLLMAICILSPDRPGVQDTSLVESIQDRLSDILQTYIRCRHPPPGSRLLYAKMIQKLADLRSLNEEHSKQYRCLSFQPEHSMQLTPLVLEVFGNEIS
Assay: Binding affinity to chick VDR
# unit: % | format: bare number

# compound, Activity [%]
measured = [
    ("C=C1/C(=C\\C=C2/CCC[C@]3(C)C([C@H](C)OCC(=O)NC(C)(C)C)=CCC23)C[C@@H](O)C[C@@H]1O (some centres undefined)", 22.2),
]

Specify Activity for C=C1/C(=C\C=C2/CCC[C@]3(C)[C@@H]([C@H](C)OCCC(C)(C)O)CC[C@@H]23)C[C@@H](O)C[C@@H]1O and stop.
20
